Reference for the values: ChEMBL document CHEMBL4261657

protocol: Toxicity in po dosed female monkey after 26 weeks
Format: organism-based, Macaca mulatta
assay-context: rhesus monkey, in vivo
endpoint: NOAEL at 4368 h

• CSc1cc(C)nc(SC)c1NC(=O)CN1CCN(CCSc2nc3ccccc3[nH]2)CC1.Cl = 10 mg/kg

###

protocol: Solubility of the compound in 0.1N HCl
Format: physicochemical
endpoint: solubility

- CC(C)c1cccc(C(C)C)c1NC(=O)NCC1(Cc2ccc(N(C)C)cc2)CCCC1.Cl: 6400 µg/mL

###

protocol: Tmax in fasted Beagle dog at 10 mg/kg, po by LC/MS analysis
Assay type: ADME, organism-based, Canis lupus familiaris
assay-context: in vivo
endpoint: Tmax (h)

- CSc1cc(C)nc(SC)c1NC(=O)CN1CCN(CCSc2nc3ccccc3[nH]2)CC1.Cl: 1
